B1: CD2-associated protein, residues 109 to 169; numbered along this chain, Q9Y5K6 (parent)
chain: KKRQCKVLFEYIPQNEDELELKVGDIIDINEEVEEGWWSGTLNNKLGLFPSNFVKELEVTD

# Variants of: B1
# assayExplanation: abundance fitness (aPCA) (normalised: wild type 0, dead -1); higher = more abundant; growth selection in yeast, the domain comes from the species named
# runConditions: Homo sapiens
Can you tell me abundance fitness for the items I'm about to list?
I only need the number, thanks.

Entry under review: L57G . Reported abundance fitness?
-0.864

Entry under review: E35M . Reported abundance fitness?
-0.169

Entry under review: W38F . Reported abundance fitness?
-0.263

Entry under review: E58L . Reported abundance fitness?
-0.062

Entry under review: F53I . Reported abundance fitness?
0.149
